Study system: MEK1 kinase (Homo sapiens (Human))
Experimental details: MEK1 kinase enzymatic activity assay (Kinase Glo plus luminescence)
Type: biochemical
Settings: 60 minutes at 22 degree
Quantity name: IC50

Some solved entries appear below for comparison.
Cn1c(Nc2ccc(I)cc2F)c(C(=O)NOCCO)c2nc(N)sc2c1=O; < 500 nM
CSc1ccc(Nc2c(C(=O)NOCCO)c3occc3c(=O)n2C)c(F)c1; < 500 nM

Would you be so kind as to report IC50 for each listed record?
1. Cc1cc2c(=O)n(C)c(Nc3ccc(I)cc3F)c(C(=O)NOC[C@H](O)CO)c2o1
2. CSc1nc2c(C(=O)NOCCO)c(Nc3ccc(I)cc3F)n(C)c(=O)c2s1
3. Cn1c(Nc2ccc(I)cc2Cl)c(C(=O)NCCCO)c2occc2c1=O
4. Cc1cc2c(=O)n(C)c(Nc3ccc(I)cc3F)c(C(=O)NOCCO)c2o1
5. C[C@@H](CO)ONC(=O)c1c(Nc2ccc(I)cc2F)n(C)c(=O)c2ccoc12
6. Cc1nc2c(=O)n(C)c(Nc3ccc(I)cc3F)c(C(=O)NOCCO)c2o1

A)
1: < 500 nM; 2: < 500 nM; 3: < 10000 nM; 4: < 500 nM; 5: < 100 nM; 6: < 1000 nM

###

Give IC50 for every item shown.
Study system: MEK1 kinase (Homo sapiens (Human), UniProt Q02750)
Sequence (Q02750 whole entry): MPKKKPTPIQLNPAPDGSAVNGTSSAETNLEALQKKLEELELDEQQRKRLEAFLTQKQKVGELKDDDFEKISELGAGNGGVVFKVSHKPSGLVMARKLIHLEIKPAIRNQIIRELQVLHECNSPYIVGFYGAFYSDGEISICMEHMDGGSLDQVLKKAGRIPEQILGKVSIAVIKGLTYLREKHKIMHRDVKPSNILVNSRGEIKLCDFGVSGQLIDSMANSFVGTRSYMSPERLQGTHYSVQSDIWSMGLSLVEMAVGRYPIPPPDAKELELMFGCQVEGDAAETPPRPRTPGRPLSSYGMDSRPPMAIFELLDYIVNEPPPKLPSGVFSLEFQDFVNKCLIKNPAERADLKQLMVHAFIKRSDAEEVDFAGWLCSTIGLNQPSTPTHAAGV
Experimental details: MEK1 kinase enzymatic activity assay (Kinase Glo plus luminescence)
Type: biochemical
Settings: 60 minutes at 22 degree

Some solved entries appear below for comparison.
Cn1c(Nc2ccc(I)cc2F)c(C(=O)NOCCO)c2occc2c1=O; < 100 nM
Cn1c(Nc2ccc(I)cc2F)c(C(=O)NOC[C@H](O)CO)c2occc2c1=O; < 100 nM
CSc1ccc(Nc2c(C(=O)NOCCO)c3occc3c(=O)n2C)c(Cl)c1; < 1000 nM
Cn1c(Nc2ccc(I)cc2F)c(C(=O)N2CC(O)(C3CCCCN3)C2)c2occc2c1=O (stereo not drawn); < 1000 nM

Would you be so kind as to report IC50 for each listed record?
1. Cn1c(Nc2ccc(I)cc2F)c(C(=O)NCCCO)c2occc2c1=O
2. Cc1coc2c(C(=O)NOCCO)c(Nc3ccc(I)cc3Cl)n(C)c(=O)c12
3. CNc1nc2c(C(=O)NOCCO)c(Nc3ccc(I)cc3F)n(C)c(=O)c2s1
4. CCONC(=O)c1c(Nc2ccc(I)cc2F)n(C)c(=O)c2ccoc12
5. Cc1coc2c(C(=O)NOCCO)c(Nc3ccc(I)cc3F)n(C)c(=O)c12

A)
1: < 10000 nM; 2: < 500 nM; 3: < 500 nM; 4: < 500 nM; 5: < 500 nM

Would you be so kind as to report IC50 for each listed record?
1. Cn1c(Nc2ccc(I)cc2F)c(C(N)=O)c2occc2c1=O
2. Cn1c(Nc2ccc(I)cc2Cl)c(C(=O)NOCCO)c2occc2c1=O

A)
< 1000 nM
< 100 nM

Would you be so kind as to report IC50 for each listed record?
1. Cn1c(Nc2ccc(Cl)cc2Cl)c(C(=O)NOCCO)c2occc2c1=O
2. CN(C)Cc1cc2c(=O)n(C)c(Nc3ccc(I)cc3F)c(C(=O)NOCCO)c2o1
3. Cn1c(Nc2ccc(I)cc2F)c(C(=O)NC(=O)CO)c2occc2c1=O

A)
< 10000 nM
< 500 nM
< 10000 nM

Would you be so kind as to report IC50 for each listed record?
1. C[C@H](O)CONC(=O)c1c(Nc2ccc(I)cc2F)n(C)c(=O)c2ccoc12
2. Cn1c(Nc2ccc(Br)cc2F)c(C(=O)NOCCO)c2occc2c1=O

A)
1. < 100 nM
2. < 10000 nM

Would you be so kind as to report IC50 for each listed record?
1. Cn1c(Nc2ccc(I)cc2F)c(C(=O)NOCC2CC2)c2occc2c1=O
2. Cn1c(Nc2ccc(I)cc2F)c(C(=O)NOCCO)c2scnc2c1=O

A)
< 100 nM
< 10000 nM
